Cited source for all entries: a melting point compilation (Tetko et al.; mined from patent text by program, amines drawn as free bases though some values may be those of a salt)

Parameter Measured: melting point

GET /value?item= CCOC(=O)/C=C/c1nc(COc2ccc(C=O)cc2OC)c(C)o1 &field=melting point returns 117 to 118 °C

GET /value?item= O=c1c(CCCc2cnccn2)cc2cccnc2n1-c1cccc([N+](=O)[O-])c1 &field=melting point returns 194 to 195 °C

GET /value?item= O=C1CC(NC(=O)C2CCCN3C(=O)CCC(NC(=O)c4ccccc4)C(=O)N23)C(OC2CCCC2)O1 (stereo not given) &field=melting point returns 172 to 180 °C

GET /value?item= CON=C(C(C)=NN)c1ccccc1 &field=melting point returns 132 °C

GET /value?item= CC1Cc2cc3c(cc2C(c2ccc([N+](=O)[O-])cc2)=NN1c1nnns1)OCO3 (stereo not given) &field=melting point returns 109 to 110 °C

###

melting point values for the compounds below.

GET /value?item= COc1ccc(N2CCN(c3c(C)c(C)c4c(c3C)C(OCc3ccccc3)C(C)(C)O4)CC2)cc1 (centres undefined) &field=melting point returns 98 to 99 °C

GET /value?item= N=C(NO)c1ccc(-c2ccc([N+](=O)[O-])c(C(F)(F)F)c2)o1 &field=melting point returns 221 °C

GET /value?item= CC(=O)NN=C(C)c1ccc2nnn(Cc3ccc4ncccc4c3)c2n1 &field=melting point returns 249 to 251 °C

GET /value?item= COc1cc2c(cc1OC)C(C)=[N+]([O-])C(c1cccs1)N2 (centres undefined) &field=melting point returns 180 to 185 °C

GET /value?item= CC(=O)c1cc(F)ccc1Oc1nc2ccc(Br)cc2cc1Cc1ccccc1 &field=melting point returns 115 to 117 °C

###

melting point values for the molecules below.

Molecule | melting point
COC(=O)c1ccc2c(c1)OCC(=O)N2 | 258 to 260 °C
COc1cc2c(cc1OC)CN(CCCc1cccc(NC(=O)c3cccc4c(=O)c5cccc(F)c5[nH]c34)c1)CC2 | 128 °C
COC(=O)c1c([N+](=O)[O-])cccc1S(=O)(=O)NC(C)(C)C | 89 to 91 °C

GET /value?item= COC(=O)c1cc2ccnc(N)c2[nH]1 &field=melting point returns > 300 °C

GET /value?item= Cc1ccc(S(=O)(=O)Sc2cc(C)c(NC(=O)OC(C)(C)C)cc2C(C)(C)C)cc1 &field=melting point returns 106 to 108 °C

GET /value?item= COc1ccc(N2CCN(CCC3OCCc4cc(C(N)=O)ccc43)CC2)cc1 (stereo not given) &field=melting point returns 180 to 182 °C

GET /value?item= Cc1cc(OS(=O)(=O)C(F)(F)F)cc(=O)n1C &field=melting point returns 65 to 67 °C

GET /value?item= CN1C(C)(C)CC(OC(=O)NNC(=O)OC2CC(C)(C)N(C)C(C)(C)C2)CC1(C)C &field=melting point returns 189 to 191 °C

GET /value?item= COc1cc(O)c(-c2ccccc2)nn1 &field=melting point returns 204 to 209 °C

GET /value?item= CCOC(OCC)c1cc(NC(c2ccccc2)(c2ccccc2)c2ccccc2)c(F)c(-c2ccc(C(F)(F)F)nc2)n1 &field=melting point returns 58 to 60 °C

###

melting point values for the compounds below.

Example cases with answers are listed next.
Compound | melting point
Cc1c(-c2ccccc2)n[nH]c1-c1ccccc1 | 225 to 226 °C
C=CCOc1ccc2oc(C(=O)c3ccc(F)cc3)c(C)c2c1 | 80 to 82 °C
CC(C)(C)c1cc(CCc2cc(F)cc(F)c2NC(=O)NCC(C)(C)c2ccc(Cl)c(Cl)c2)cc(C(C)(C)C)c1O | 159 to 160 °C
CCC(NC(=O)c1sc(NC(=O)c2ccccc2)nc1C)c1ccccc1 (stereo not given) | 87 to 89 °C
COc1ccc(-c2[nH]c3cn[nH]c(=O)c3c2Cl)cc1OCC1CC1 | 256 to 258 °C

The record that follows has no melting point shown yet.
GET /value?item= COc1ccc2c(c1)OC(CNCCCOc1ccc3cccnc3c1)CO2 (stereo not given) &field=melting point returns 135 to 142 °C

###

melting point values for the compounds below.

Example cases with answers are listed next.
Compound | Assay Result
N#Cc1cc(O)cc(F)c1 | 138 to 139 °C
CCOC(=O)Cc1ccc(SCc2cc(C)ccc2C(=O)O)cc1 | 94 °C
O=C(Nc1ccc(N2C[C@H]3CN(C(=O)OCc4ccccc4)C[C@H]3C2)c(F)c1)OCc1ccccc1 | 121 to 122 °C

GET /value?item= CC#CCOc1ccc(S(=O)(=O)C(C(=O)NO)C2CCN(C(=O)OC(C)(C)C)CC2)cc1 (stereo not given) &field=melting point returns 80 °C

GET /value?item= COc1ccc(C(=O)Nc2ccccc2)c2c1OCC2CC(=O)OCc1ccccc1 (stereo not given) &field=melting point returns 179 to 180 °C

###

melting point values for the compounds below.

Example cases with answers are listed next.
Compound | Parameter Measured | Assay Result
O=[N+]([O-])c1ccc(Oc2ccc(C(F)(F)F)cc2Cl)nc1Cl | melting point | 53 to 59 °C
CCC1=C(Cl)C(=O)c2ccccc2C1=O | melting point | 109 to 110 °C

GET /value?item= c1ccc(CSc2cnccn2)cc1 &field=melting point returns 65 to 67 °C

GET /value?item= Cc1ccsc1C(=O)N1CCC(Sc2ccc(CCNC[C@H](O)COc3ccc(O)cc3)cc2)CC1 &field=melting point returns 135 to 144 °C

GET /value?item= O=S(=O)(c1ccccc1)n1ccc2c(CO)cccc21 &field=melting point returns 89 to 91 °C

###

melting point values for the compounds below.

Example cases with answers are listed next.
Compound | melting point
CC(=O)c1cc(N=C=O)cc(C(C)=O)c1 | 71 °C
O=C(CO)N1CCN(c2ccc(Nc3cc(-c4cnc5cc[nH]c5c4)cn4ccnc34)nc2)CC1 | 218 to 220 °C
CC(C)N(CCCC1CCN(CCNC(=O)N2c3ccccc3C(=O)Nc3cccnc32)CC1)C(C)C | 184 °C
O=C(O)CCN1CCN2c3ccccc3Cc3ccccc3C2C1 (stereo not given) | 195 to 197 °C
CCCCOC(=O)COc1ccc(C(=O)Nc2ccccc2Sc2cc(OC)ccc2-c2nnn[nH]2)cc1 | 169 to 171 °C

GET /value?item= CCCc1cc(C(=O)OCC)ccc1O &field=melting point returns 78 to 79 °C

GET /value?item= CNS(=O)(=O)C(=O)CCOc1cc(Oc2nn(C)c(C(F)(F)F)c2Cl)ccc1[N+](=O)[O-] &field=melting point returns 170 to 172 °C

GET /value?item= Cc1cnc(C)c(Cl)c1N &field=melting point returns 82 to 83 °C

GET /value?item= CN1CCN(c2ccnc3c(NC(=O)c4c(Cl)cccc4Cl)cc(F)cc23)C1=O &field=melting point returns 268 to 272 °C

GET /value?item= O=C1C(=Cc2ccccc2)C(=O)c2ccccc21 &field=melting point returns 150 °C

GET /value?item= CCOC(=O)CCCc1cn(C(c2ccccc2)(c2ccccc2)c2ccccc2)cn1 &field=melting point returns 134 °C

GET /value?item= O=C(O)c1c(F)c(F)c(O)c(Cl)c1F &field=melting point returns 87 to 90 °C

GET /value?item= O=C(c1ccc(Br)cc1)c1ccc(N2CCOCC2)cc1 &field=melting point returns 178 to 179 °C

GET /value?item= CCOC(=O)C(=CNC1CC1)C(=O)c1cc(F)c(F)c(F)c1F &field=melting point returns 63 to 65 °C

GET /value?item= O=S1(=O)c2cccc3c(Cl)ccc(c23)N1CCCN1CC=C(c2ccccc2)CC1 &field=melting point returns 135 °C

GET /value?item= CC(C)(C)OC(=O)N1CCC(NCc2cccc(NC(=O)c3ccc(F)cc3)n2)CC1 &field=melting point returns 77.7 °C

GET /value?item= Cc1ccnc(N2CCN(CCc3c(C)n4c5c(cc(NC(=O)c6ccccc6)cc35)CCC4)CC2)c1 &field=melting point returns 218 °C

GET /value?item= CC(C)n1nc(CS(C)=O)cc1O (stereo not given) &field=melting point returns 69 °C

GET /value?item= Cc1cc(C#N)cc(C(N)=O)c1NC(=O)c1cc(Br)nn1-c1ncccc1Cl &field=melting point returns > 255 °C

GET /value?item= Nc1cc2nc(O)c(O)nc2c2c1CCCC2 &field=melting point returns > 300 °C

GET /value?item= O=C(SC(SC(=O)c1ccccc1)C(=O)O)c1ccccc1 &field=melting point returns 82 to 83 °C

GET /value?item= CCCCC1(CCCC)CS(=O)(=O)c2ccc(N(C)C)cc2[C@@H](c2ccc(OCc3ccc(C(=O)O)cc3)cc2)[C@H]1O &field=melting point returns 156 to 159 °C

GET /value?item= O=C(CC1CCCCCC1=O)c1ccc(Br)cc1 (stereo not given) &field=melting point returns 124 to 127 °C

GET /value?item= CNC(=O)n1cc(F)cnc1=O &field=melting point returns 166 °C

GET /value?item= CC(C)(c1ccc(Oc2ccc([N+](=O)[O-])cc2C(F)(F)F)cc1)c1cccc(C(C)(C)c2ccc(Oc3ccc([N+](=O)[O-])cc3C(F)(F)F)cc2)c1 &field=melting point returns 127 to 128 °C

GET /value?item= O=C1NN=C(c2ccc3c(c2)CCN(C2CCC2)CC3)C2CC12 (stereo not given) &field=melting point returns 129 to 132 °C
